Please provide measured melting point for the entries that follow.

Check out these entries, answers already filled in.
{"columns": ["Molecule", "melting point"],
 "data": [
  ["Cc1cn2cc(-c3cc4ccc(N(C)C5CCN(C)C5)cc4oc3=O)nc2c(C)n1 (centres unmarked)", "182 to 184 °C"],
  ["Cc1cn2cc(-c3cc4ccc(N5CCC(N(C)C)C5)cc4oc3=O)nc2s1 (centres unmarked)", "180 to 183 °C"],
  ["Cc1ccn2cc(-c3cc4ccc(N5CC6CCC5CN6)cc4oc3=O)nc2c1 (centres unmarked)", "196 to 215 °C"],
  ["CN1CCN(c2ccc3cc(-c4cn5cccc(Br)c5n4)c(=O)oc3c2)CC1", "217 to 220 °C"],
  ["C[C@@H]1CN(c2ccc3cc(-c4cn5cccc(Cl)c5n4)c(=O)oc3c2)CCN1", "215 to 218 °C"]
]}

Take each entry in turn and give its melting point.
1. O=c1oc2cc(N3CCNCC3)ccc2cc1-c1cc(F)cc(F)c1
2. C[C@@H]1CN(c2ccc3cc(-c4cn5ccc(C(F)(F)F)cc5n4)c(=O)oc3c2)CCN1
3. Cc1nccn2cc(-c3cc4ccc(O[C@@H]5CCNC5)cc4oc3=O)nc12

1: 202 to 206 °C; 2: 252 to 260 °C; 3: 220 to 230 °C
